system.name: KRAS G12D (Homo sapiens, UniProt P01116, G12D)
Sequence (P01116 1-188 isoform P01116-2 G12D): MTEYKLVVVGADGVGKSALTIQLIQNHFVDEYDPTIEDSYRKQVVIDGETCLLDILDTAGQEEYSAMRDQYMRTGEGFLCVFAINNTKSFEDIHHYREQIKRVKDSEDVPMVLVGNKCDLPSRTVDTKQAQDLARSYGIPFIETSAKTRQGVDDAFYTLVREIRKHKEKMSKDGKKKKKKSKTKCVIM
test.details: GDP-GTP exchange assay (KRAS G12D);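 further: one dagger IC50 up to 100 nM and two daggers above 100 nM up to 1 μM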
Assay type: biochemical
assay.setup: bodipy-GDP/GppNHp exchange with SOS1; 4 h pre-incubation, 2 h reaction
parameter.measured: G12D_exchange (KRAS_G12D exchange assay IC50)

molecule	result
Cc1nc2c(F)c(-c3cccc(Cl)c3Cl)c(CCC#N)cc2c2c1cc([C@H]1C[C@H]3C[C@H](CN3C(=O)c3ccccc3)N1C(=O)C1CC1)n2[C@H]1[C@H]2CN[C@@H]1C2 (atropisomer, axis not shown; (Ra)) [Example 119]	†
CCc1cnc(N2C[C@@H]3C[C@H](C2)N(C(=O)C2CC2)[C@H]3c2cc3c(C)nc4c(F)c(-c5cccc(Cl)c5Cl)c(CCC#N)cc4c3n2[C@H]2[C@H]3CN[C@@H]2C3)s1 (atropisomer, axis not shown; (Ra)) [Example 99]	†
Cc1nc2c(F)c(-c3cccc(Cl)c3Cl)c(CCC#N)cc2c2c1cc([C@H]1[C@H]3C[C@H](CN(c4ccn(C(C)C)c(=O)c4)C3)N1C(=O)C1CC1)n2[C@H]1[C@H]2CN[C@@H]1C2 (atropisomer, axis not shown; (Ra)) [Example 68]	†
Cc1nc2c(F)c(-c3cccc(Cl)c3Cl)c(CCC#N)cc2c2c1cc([C@H]1[C@H]3C[C@H](CN(c4ccc(Cl)c(Cl)c4)C3)N1C(=O)C1CC1)n2[C@H]1[C@H]2CN[C@@H]1C2 (atropisomer, axis not shown; (Ra)) [Example 15]	†††
Cc1nc2c(F)c(-c3cccc(Cl)c3Cl)c(CCC#N)cc2c2c1cc([C@H]1[C@H]3C[C@H](CN(c4ncc(C(C)C)s4)C3)N1C(=O)C1CC1)n2[C@H]1[C@H]2CN[C@@H]1C2 (atropisomer, axis not shown; (Ra)) [Example 32]	†
Cc1nc2c(F)c(-c3cccc(Cl)c3Cl)c(CCC#N)cc2c2c1cc([C@H]1[C@H]3C[C@H](CN(c4cccc(C#N)c4)C3)N1C(=O)C1CC1)n2[C@H]1[C@H]2CN[C@@H]1C2 (atropisomer, axis not shown; (Ra)) [Example 17]	††
Cc1cccnc1N1C[C@@H]2C[C@H](C1)N(C(=O)C1CC1)[C@H]2c1cc2c(C)nc3c(F)c(-c4cccc(Cl)c4Cl)c(CCC#N)cc3c2n1[C@H]1[C@H]2CN[C@@H]1C2 (atropisomer, axis not shown; (Ra)) [Example 48]	†

###

test.details: Caco2 assay (permeability, Papp A-B)
Format: in vitro ADME
assay.setup: human, Caco-2, absorptive direction (A-B), 50 μM test compound, 4% BSA in receiver
parameter.measured: Papp A→B at 120 min, 50 μM

molecule	parameter.measured	result
Cc1nc2c(F)c(-c3cccc(Cl)c3Cl)c(CCC#N)cc2c2c1cc([C@H]1[C@H]3C[C@H](CN(c4cc(C)n(C)n4)C3)N1C(=O)C1CC1)n2[C@H]1[C@H]2CN[C@@H]1C2 (atropisomer, axis not shown; (Ra))	Papp A→B at 120 min, 50 μM	≤ 0.5 ×10⁻⁶ cm/s
Cc1nc2c(F)c(-c3cccc(Cl)c3Cl)c(CCC#N)cc2c2c1cc([C@H]1C[C@H]3C[C@H](CN3c3ccccn3)N1C(=O)C1CC1)n2[C@H]1[C@H]2CN[C@@H]1C2 (atropisomer, axis not shown; (Ra))	Papp A→B at 120 min, 50 μM	≤ 0.5 ×10⁻⁶ cm/s
Cc1ccc(N2C[C@@H]3C[C@H](C2)N(C(=O)C2CC2)[C@H]3c2cc3c(C)nc4c(F)c(-c5cccc(Cl)c5Cl)c(CCC#N)cc4c3n2[C@H]2[C@H]3CN[C@@H]2C3)cn1 (atropisomer, axis not shown; (Ra))	Papp A→B at 120 min, 50 μM	≤ 0.5 ×10⁻⁶ cm/s
Cc1nc2c(F)c(-c3cccc(Cl)c3Cl)c(CCC#N)cc2c2c1cc([C@H]1C[C@H]3C[C@H](CN3C(=O)c3ccccc3)N1C(=O)C1CC1)n2[C@H]1[C@H]2CN[C@@H]1C2 (atropisomer, axis not shown; (Ra))	Papp A→B at 120 min, 50 μM	≤ 0.5 ×10⁻⁶ cm/s
Cc1nc2c(F)c(-c3cccc(Cl)c3Cl)c(CCC#N)cc2c2c1cc([C@H]1[C@H]3C[C@H](CN(c4cnc(C(F)(F)F)cn4)C3)N1C(=O)C1CC1)n2[C@H]1[C@H]2CN[C@@H]1C2 (atropisomer, axis not shown; (Ra))	Papp A→B at 120 min, 50 μM	≤ 0.5 ×10⁻⁶ cm/s
Cc1nc2c(F)c(-c3cccc(Cl)c3Cl)c(CCC#N)cc2c2c1cc([C@H]1[C@H]3C[C@H](CN(c4cccc(Cl)c4)C3)N1C(=O)C1CC1)n2[C@H]1[C@H]2CN[C@@H]1C2 (atropisomer, axis not shown; (Ra))	Papp A→B at 120 min, 50 μM	≤ 0.5 ×10⁻⁶ cm/s
Cc1nc2c(F)c(-c3cccc(Cl)c3Cl)c(CCC#N)cc2c2c1cc([C@H]1[C@H]3C[C@H](CN(c4cnn(C)c(=O)c4)C3)N1C(=O)C1CC1)n2[C@H]1[C@H]2CN[C@@H]1C2 (atropisomer, axis not shown; (Ra))	Papp A→B at 120 min, 50 μM	≤ 0.5 ×10⁻⁶ cm/s
Cc1nc2c(F)c(-c3cccc(Cl)c3Cl)c(CCC#N)cc2c2c1cc([C@H]1[C@H]3C[C@H](CN(c4ncccc4C#N)C3)N1C(=O)C1CC1)n2[C@H]1[C@H]2CN[C@@H]1C2 (atropisomer, axis not shown; (Ra))	Papp A→B at 120 min, 50 μM	≤ 0.5 ×10⁻⁶ cm/s
Cc1nc2c(F)c(-c3cccc(Cl)c3Cl)c(CCC#N)cc2c2c1cc([C@H]1[C@H]3C[C@H](CN(c4cscn4)C3)N1C(=O)C1CC1)n2[C@H]1[C@H]2CN[C@@H]1C2 (atropisomer, axis not shown; (Ra))	Papp A→B at 120 min, 50 μM	≤ 0.5 ×10⁻⁶ cm/s
